# System: gastric mucosa
# assay-name: Effect on gastric mucosa (2) (oral administration)
# Assay type: in vivo, rat (Sprague-Dawley strain)
# measurement-parameters: rats, 100 mg/Kg oral, 4 hours
quantity-kind: Mean number of gastric lesion
API doc: respond with a numeric literal and nothing else, no unit.

The examples below pair each entry with its known result.
1. CC(=O)Oc1ccccc1C(=O)O    15.0
2. CC(C(=O)C(=O)O)c1ccc(N2Cc3ccccc3C2=O)cc1 (stereo not shown)    1.0
3. CC(C(=O)C(N)=O)c1ccc(N2Cc3ccccc3C2=O)cc1 (stereo not shown)    0

Tested on gastric mucosa: CCCCC1C(=O)N(c2ccccc2)N(c2ccccc2)C1=O . Observed Mean number of gastric lesion: 4.2
